Molecular target: Human JAK2 (Homo sapiens (Human))
Sequence (O60674 whole entry): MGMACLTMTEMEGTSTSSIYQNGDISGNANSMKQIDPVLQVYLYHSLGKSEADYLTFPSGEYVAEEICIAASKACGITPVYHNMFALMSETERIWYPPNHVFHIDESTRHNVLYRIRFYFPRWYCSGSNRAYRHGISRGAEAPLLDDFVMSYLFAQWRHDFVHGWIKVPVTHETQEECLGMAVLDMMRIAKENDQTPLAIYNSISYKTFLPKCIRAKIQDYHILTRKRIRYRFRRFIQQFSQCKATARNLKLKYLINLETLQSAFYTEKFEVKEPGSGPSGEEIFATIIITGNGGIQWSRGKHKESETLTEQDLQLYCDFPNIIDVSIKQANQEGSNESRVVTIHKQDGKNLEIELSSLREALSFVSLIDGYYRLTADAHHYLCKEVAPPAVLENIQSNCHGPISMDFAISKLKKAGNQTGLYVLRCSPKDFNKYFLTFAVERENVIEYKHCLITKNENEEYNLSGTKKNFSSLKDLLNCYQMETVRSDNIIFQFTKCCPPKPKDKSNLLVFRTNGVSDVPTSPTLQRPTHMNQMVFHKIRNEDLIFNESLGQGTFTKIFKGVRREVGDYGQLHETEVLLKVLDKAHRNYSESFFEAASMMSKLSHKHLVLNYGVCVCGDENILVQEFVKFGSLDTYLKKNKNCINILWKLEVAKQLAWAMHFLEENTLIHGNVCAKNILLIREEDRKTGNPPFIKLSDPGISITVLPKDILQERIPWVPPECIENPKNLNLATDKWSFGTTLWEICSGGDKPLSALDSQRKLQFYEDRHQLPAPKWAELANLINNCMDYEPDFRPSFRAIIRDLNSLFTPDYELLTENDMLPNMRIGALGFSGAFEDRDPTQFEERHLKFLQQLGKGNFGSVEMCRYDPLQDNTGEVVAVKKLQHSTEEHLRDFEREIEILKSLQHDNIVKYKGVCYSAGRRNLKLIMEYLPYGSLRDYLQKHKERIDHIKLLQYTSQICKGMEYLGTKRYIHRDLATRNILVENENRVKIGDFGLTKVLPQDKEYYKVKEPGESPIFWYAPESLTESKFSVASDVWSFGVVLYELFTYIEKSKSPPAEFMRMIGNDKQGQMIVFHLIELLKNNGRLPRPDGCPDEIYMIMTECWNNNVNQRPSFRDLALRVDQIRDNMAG
Experiment: In vitro kinase inhibition test, JAK2 (33P-ATP filter scintillation)
Type: biochemical
Details: compound at 1 uM; read-out: JAK2 kinase-phosphorylation inhibitory level (% inhibition)
quantity: inhibition at 1 µM (%)

A selection of reference data follows.
COCC(=O)N1CC(N(C)c2ncnc3[nH]ccc23)C2(CC2)C1 (centres unmarked) [Example 53]    -18
CN(c1ncnc2[nH]ccc12)C1CN(C(=O)CN=[N+]=[N-])CC12CC2 (centres unmarked) [Example 54]    60
CN(c1ncnc2[nH]ccc12)[C@H]1CN(S(=O)(=O)c2cccc([N+](=O)[O-])c2)CC12CC2 [Example 44]    96
Cc1cccc(S(=O)(=O)N2C[C@H](N(C)c3ncnc4[nH]ccc34)C3(CC3)C2)c1 [Example 46]    81
CN(c1ncnc2[nH]ccc12)[C@@H]1CN(C(=S)CC#N)CC12CC2 [Example 69]    6
CCCS(=O)(=O)N1C[C@H](N(C)c2ncnc3[nH]ccc23)C2(CC2)C1 [Example 35]    78

1: CN(c1ncnc2[nH]ccc12)[C@H]1CN(C(=O)Nc2ccc(Cl)cc2Cl)CC12CC2 [Example 25]
2: CN(c1ncnc2[nH]ccc12)[C@H]1CN(S(=O)(=O)c2ccc([N+](=O)[O-])cc2)CC12CC2 [Example 45]
q: Response body: label of entry with the larger inhibition at 1 µM; valid values 1 , 2 . Record your answer as the label of the chosen record.
a: 2
